- System: SF-268 CNS
- assay.overview: NCI tumour cell line growth inhibition, 48 h
readout.name: TGI

Solved entries:
[
  {
    "compound": "Cc1nc2sccn2c1/C=C1/C(=O)Nc2cccc(Cl)c21",
    "TGI": "> 100 µM"
  },
  {
    "compound": "COc1ccc(CC2(Cc3ccc(OC)cc3)CCOC2=O)cc1",
    "TGI": "> 100 µM"
  },
  {
    "compound": "C=C1C[C@H](O)[C@H](Br)C(C)(C)C12CCC(C)(Cl)C(Br)C2 (some centres not stated)",
    "TGI": "20.8 µM"
  },
  {
    "compound": "O=C(c1ccc(Cl)cc1)N(C(=S)OCCOc1ccccc1)c1ccccc1",
    "TGI": "60.4 µM"
  },
  {
    "compound": "COC(=O)Nc1nc2ccc(Oc3cccc(NC(=O)Nc4cc(C(F)(F)F)ccc4F)c3)cc2[nH]1",
    "TGI": "> 25 µM"
  }
]

Hi! Can you tell me TGI for each of these compounds?
1. COc1cc(OC)c(C(=O)/C=C/c2cccc(C#N)c2)c(OC)c1
2. CCOC(=O)c1nnc2c(C#N)c(-c3ccccc3)c(C)n2c1N
3. c1ccc2[nH]c(-c3cc(-c4ccc5c(c4)OCO5)n[nH]3)nc2c1
4. CC(C)CCNCC(O)Cn1c2ccccc2c2ccccc21 (configuration not stated)
5. COC1=C(C)C(=O)c2c(cc3c(c2O)C(C)(CCC=C(C)C)C(C)O3)C1=O (configuration not stated)
6. CC1(C)CC2CC(CC(C)(C)C2=O)C1=O
7. N#CNC(=NCCc1c[nH]c2ccccc12)Oc1ccccc1
8. CC(=O)N(C(C)=O)c1cc2c3c(c1)CCCN3CCC2

[reply]
1. 7.9 µM
2. > 100 µM
3. 22.4 µM
4. 26.4 µM
5. > 100 µM
6. > 100 µM
7. > 100 µM
8. > 10 µM

---

Could you please report measured GI50 for the items listed next?
- Test system: A498 renal
- assay.overview: NCI tumour cell line growth inhibition, 48 h

[
  {
    "compound": "CN(C)CC1CCC2=C(C1=O)C(c1ccc(Cl)c(Cl)c1)C1=C(CCC(CN(C)C)C1=O)O2 (stereo unspecified)",
    "readout.name": "GI50",
    "result": "14.3 µM"
  }
]

Please give GI50, item by item, for the list that follows.
1. CC(C)CCNCC(O)Cn1c2ccccc2c2ccccc21 (stereo unspecified)
2. COc1ccc(C(=O)/C=C/c2cccc(Nc3ccnc4cc(Cl)ccc34)c2)cc1

[reply]
9.52 µM
3 µM

---

Please go through the items and note down their TGI.
- Test system: SK-OV-3 ovarian
- assay.overview: NCI tumour cell line growth inhibition, 48 h

Guide cases for TGI, answers given:
[
  {
    "molecule": "COC(=O)CC1c2ccccc2N2C(=O)Cc3c([nH]c4ccccc34)C12 (stereo unspecified)",
    "system": "SK-OV-3 ovarian",
    "result": "> 100 µM"
  },
  {
    "molecule": "CC(Oc1ccc(OCC2CCCCC2)cc1)C(=O)NCc1ccco1 (stereo unspecified)",
    "system": "SK-OV-3 ovarian",
    "result": "> 100 µM"
  },
  {
    "molecule": "CCOC(=O)c1nnc2c(C#N)c(-c3ccccc3)c(C)n2c1N",
    "system": "SK-OV-3 ovarian",
    "result": "> 100 µM"
  },
  {
    "molecule": "COC(=O)C1=C(C)NC(C)=C(C(=O)OCC(C)C)C1c1ccccc1[N+](=O)[O-] (stereo unspecified)",
    "system": "SK-OV-3 ovarian",
    "result": "17.4 µM"
  },
  {
    "molecule": "CN(C)C(=O)c1cnc2oc3ccc(O)cc3c2c1-c1ccccc1",
    "system": "SK-OV-3 ovarian",
    "result": "> 25 µM"
  },
  {
    "molecule": "CN1CCc2[nH]nc(-c3n[nH]c4c3CN(C)CC4)c2C1",
    "system": "SK-OV-3 ovarian",
    "result": "> 100 µM"
  }
]

Would you mind listing TGI for each of the following molecules?
1. O=C(NNC(=O)c1csc(NC(=S)NC2CCCCC2)n1)c1ccccc1
2. O=c1oc2cc(O)ccc2c(O)c1Cc1c(O)c2ccc(O)cc2oc1=O
3. C[C@]12CCC(=O)CC1CCCC2=O (stereo partly specified)

[reply]
1. 34.2 µM
2. > 100 µM
3. > 100 µM

# batch size: 2; output TGI per entry
1. CC[C@@]1(O)C(=O)OCc2c1cc1n(c2=O)Cc2c-1nc1ccccc1c2/C=N/NC(=O)c1ccc(N)cc1
2. O=C(Nc1ccc(Oc2cccc(F)c2)c(Cl)c1)c1cnccn1

[reply]
1. > 100 µM
2. > 50 µM
